Target: mpCAR (Mycolicibacterium phlei)
Construct: gene car; N-terminal 6xHis tag, pNIC28-Bsa4, E. coli BL21(DE3); co-expressed with Bacillus subtilis phosphopantetheine transferase; gene from genomic DNA
Sequence (A0A5N5VEC4 1-1162): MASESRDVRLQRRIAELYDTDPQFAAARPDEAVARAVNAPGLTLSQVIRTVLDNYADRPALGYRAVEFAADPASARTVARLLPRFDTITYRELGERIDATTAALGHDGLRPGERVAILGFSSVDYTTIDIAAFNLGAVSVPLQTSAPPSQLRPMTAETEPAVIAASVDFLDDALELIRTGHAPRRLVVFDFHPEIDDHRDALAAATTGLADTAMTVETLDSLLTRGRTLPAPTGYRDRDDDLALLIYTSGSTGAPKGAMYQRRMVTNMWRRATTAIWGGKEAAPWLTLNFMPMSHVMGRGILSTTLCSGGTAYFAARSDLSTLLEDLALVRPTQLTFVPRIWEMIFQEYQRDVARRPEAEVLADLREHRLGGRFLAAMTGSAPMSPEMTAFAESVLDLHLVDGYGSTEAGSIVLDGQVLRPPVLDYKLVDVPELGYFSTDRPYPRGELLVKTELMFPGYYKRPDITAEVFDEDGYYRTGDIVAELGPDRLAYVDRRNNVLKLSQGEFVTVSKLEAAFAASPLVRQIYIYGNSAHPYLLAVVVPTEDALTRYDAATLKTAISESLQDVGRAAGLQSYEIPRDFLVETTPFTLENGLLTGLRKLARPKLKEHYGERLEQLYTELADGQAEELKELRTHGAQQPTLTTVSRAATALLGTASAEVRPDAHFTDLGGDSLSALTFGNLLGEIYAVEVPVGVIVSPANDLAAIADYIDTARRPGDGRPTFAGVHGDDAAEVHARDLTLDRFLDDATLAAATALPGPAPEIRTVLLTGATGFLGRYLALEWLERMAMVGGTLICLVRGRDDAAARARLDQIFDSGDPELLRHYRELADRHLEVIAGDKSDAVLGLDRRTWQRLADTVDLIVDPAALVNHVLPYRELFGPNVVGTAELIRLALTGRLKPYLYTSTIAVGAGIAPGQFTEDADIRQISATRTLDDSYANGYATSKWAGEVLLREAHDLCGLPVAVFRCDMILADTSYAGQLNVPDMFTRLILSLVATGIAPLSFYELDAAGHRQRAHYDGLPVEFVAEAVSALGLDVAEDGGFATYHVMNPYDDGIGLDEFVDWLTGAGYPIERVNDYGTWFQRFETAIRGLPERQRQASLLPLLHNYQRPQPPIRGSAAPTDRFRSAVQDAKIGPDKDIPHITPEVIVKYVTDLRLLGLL
Test: inhibition of CAR reaction
Assay type: biochemical
Settings: read-out: K I-ADP
reportedEndpoint: Ki (mM)
Write the number in mM without appending the unit.

Q: What does the record list as Ki for Nc1ncnc2c1ncn2[C@@H]1O[C@H](COP(=O)(O)OP(=O)(O)O)[C@@H](O)[C@H]1O [ADP] ?
Result: 11
